// reported IC50 ratio for each item listed
Organism: Cavia porcellus
Protocol Details: Irreversible antagonism to morphine was evaluated after 30 min incubation of GPI with the compound at 200 nM conc.
Format: functional
Keep the answer to the number alone.

Incoming: Item under review: COC(=O)/C=C\C(=O)N[C@H]1CC[C@@]2(O)C3Cc4ccc(O)c5c4C2(CCN3CC2CC2)[C@H]1O5 (stereo partly drawn) . Reported IC50 ratio?
Outgoing: 1.1

Incoming: Further, for O=C(CI)N[C@H]1CCC2(O)C3Cc4ccc(O)c5c4C2(CCN3CC2CC2)[C@H]1O5 (stereo partly drawn) ?
Outgoing: 1.1

Incoming: One more molecule: CCC(=O)N[C@@H]1CCC2(O)C3Cc4ccc(O)c5c4C2(CCN3CC2CC2)[C@H]1O5 (stereo partly drawn)
Outgoing: 1.5

----------
Species: Mus musculus
Protocol Details: Agonist activity measured on mouse vas deferens (MVD)
Type: functional, organism-based
Quantity Name: IC50

Incoming: Recorded IC50 for O=C(CI)N[C@@H]1CCC2(O)C3Cc4ccc(O)c5c4C2(CCN3CC2CC2)[C@H]1O5 (stereo partly specified) , please?
Outgoing: > 1 µM

----------
IC50 ratio by entry:
Species: Cavia porcellus
Protocol Details: Agonistic potency on the guinea pig ileal longitudinal muscle (GPI) relative to morphine.
Format: functional, Muscle tissue
Format: numeric value only, no unit, no commentary.

Incoming: For the molecule O=C(CI)N[C@H]1CCC2(O)C3Cc4ccc(O)c5c4C2(CCN3CC2CC2)[C@H]1O5 (some centres undefined) , what IC50 ratio is on record?
Outgoing: 0.49

Incoming: And what about the molecule COC(=O)/C=C\C(=O)N[C@@H]1CC[C@@]2(O)C3Cc4ccc(O)c5c4C2(CCN3CC2CC2)[C@H]1O5 (some centres undefined) ?
Outgoing: 1.1

Incoming: Now consider CCC(=O)N[C@H]1CCC2(O)C3Cc4ccc(O)c5c4C2(CCN3CC2CC2)[C@H]1O5 (some centres undefined) and answer again.
Outgoing: 2.9

---
Incoming: # input molecule: C=CC(=O)N[C@H]1CCC2(O)C3Cc4ccc(O)c5c4C2(CCN3CC2CC2)[C@H]1O5 (some centres undefined) ; wanted: its IC50 ratio
Outgoing: 1.5

----------
Species on record: Cavia porcellus
Protocol Details: Agonistic potency on the guinea pig ileal longitudinal muscle (GPI) relative to morphine.
Assay type: functional, Muscle tissue
Quantity Name: IC50 ratio

Look over these answered cases.
Incoming: // IC50 ratio lookup, key: Oc1ccc2c3c1O[C@H]1[C@H](N=C=S)CC[C@@]4(O)C(C2)N(CC2CC2)CCC314 (stereo partly specified)
Outgoing: 1.9

Incoming: Next up: Oc1ccc2c3c1O[C@H]1[C@@H](N=C=S)CC[C@@]4(O)C(C2)N(CC2CC2)CCC314 (stereo partly specified)
Outgoing: 9.6

Incoming: Now consider COC(=O)/C=C/C(=O)N[C@H]1CC[C@@]2(O)[C@H]3Cc4ccc(O)c5c4[C@@]2(CCN3CC2CC2)[C@H]1O5 and answer again.
Outgoing: 7.3

Incoming: Next compound: COC(=O)/C=C/C(=O)N[C@@H]1CC[C@@]2(O)[C@H]3Cc4ccc(O)c5c4[C@@]2(CCN3CC2CC2)[C@H]1O5
Outgoing: 5

Incoming: How about this compound: CCC(=O)N[C@@H]1CCC2(O)C3Cc4ccc(O)c5c4C2(CCN3CC2CC2)[C@H]1O5 (stereo partly specified)
Outgoing: 0.81

New cases:
Incoming: What value of IC50 ratio has been recorded for this entry: COC(=O)/C=C\C(=O)N[C@H]1CC[C@@]2(O)C3Cc4ccc(O)c5c4C2(CCN3CC2CC2)[C@H]1O5 (stereo partly specified)
Outgoing: 0.8

----------
Species: Cavia porcellus
Protocol Details: Irreversible antagonistic potency in guinea pig ileal longitudinal muscle (GPI)
Type: functional
Assay Setup: Muscle tissue
List of IC50 values.
Respond with the bare value in nM.

Incoming: Recorded IC50 for C=CCN1CC[C@]23c4c5ccc(O)c4O[C@H]2[C@@H](O)C=C[C@H]3[C@H]1C5 , please?
Outgoing: 51.3

--- query ---
Incoming: Entry under review: CCOc1ccc2c(c1)C1(C)CCN(CC3CC3)C(C2=O)C1C (configuration not stated) . Reported IC50?
Outgoing: 0.973

The measurements presented in this section are drawn from ChEMBL document CHEMBL1122279.
